// reported coagulating activity A (autocoagulation test) per item
- System: plasma hemostasis
- measurementProtocol: Autocoagulation test (coagulating activity A) after intravenous administration
- Format: in vivo, rabbit
- details: 30.0 mg/kg intravenously, after 60 minutes; control 70.0
Response body: numeric value in %, unit text excluded.

[[record]]
compoundstructure = "Nc1cccc2c(=O)[nH][nH]c(=O)c12.[Na]"
measuredresult = 106.6


// molecule Nc1ccnc2c(=O)n([C@@H]3O[C@H](CO)[C@@H](O)[C@H]3O)[nH]c(=O)c12 , assay plasma hemostasis, coagulating activity A (autocoagulation test) value: 104.2

Reported plasma hemostasis coagulating activity A (autocoagulation test) for item Nc1cnc2c(=O)n([C@@H]3O[C@H](CO)[C@@H](O)[C@H]3O)[nH]c(=O)c2n1.[Na] was 103.7

Bench note, plasma hemostasis: entry O=c1[nH][nH]c(=O)c2c(Br)ncnc12.[K] , its coagulating activity A (autocoagulation test) = 105.8
